Numbers sourced from patent US20210340231A1.

- study system: T1, CTNI quality control recombinant protein (PK2-CTNI-1, 170120, produced by the applicant) (human, UniProt P19429 2-210, limits assumed)
- T1 construct: also called cardiac troponin I
- T1 sequence (P19429 2-210 limits assumed): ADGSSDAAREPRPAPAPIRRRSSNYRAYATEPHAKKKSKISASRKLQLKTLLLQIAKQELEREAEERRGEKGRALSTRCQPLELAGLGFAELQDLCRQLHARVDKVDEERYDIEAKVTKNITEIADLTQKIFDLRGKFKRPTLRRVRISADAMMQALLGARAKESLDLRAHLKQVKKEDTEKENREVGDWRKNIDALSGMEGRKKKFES
- experiment: AMC sensor kinetics, antibody captured, cTnI analyte
- Method: Using the AMC sensor, the purified antibody was diluted with PBST to 10 μg/ml, and the CTNI quality control recombinant protein (PK2-CTNI-1, 170120, produced by the applicant) was serially diluted with PBST to 400 nmol/ml, 200 nmol/ml, 100 nmol/ml, 50 nmol/ml, 25 nmol/ml, 12.5 nmol/ml, 6.25 nmol/ml, and 0 nmol/ml.
Consider the cut-off 600000 M⁻¹ s⁻¹. If the recorded kon is strictly smaller, the label is y; if not, the label is n.

# TODO verify kon < 600000 M⁻¹ s⁻¹ strictly for this binder: Mutation 1-33 (antibody, V domains shown, built as for Mutation 1) VH: EVQLQQSGAELVKPGASVKLSCTASGFNLKDYYMHWMKQRTEQGLDWIGRIDPEDAETKYAPEFQGKATITADTSSNTAYLQLSTLTSEDTAVYYCARYYSSYVPFVYWGQGTLVTASA VL: DVVMTQTPLSLSVSLGDQASISCRSSQSLIYSNRHTYLHWYLQKPGQSPKLLIFQVSNRFSGVPDRFSGSGSGTDFTLKINRVEAEDLGVYFCSQSTHIPFTFGSGTKLEIKR
n

Please do the same for Mutation 1-19 (antibody, V domains shown, built as for Mutation 1) VH: EVQLQQSGAELVKPGASVKLSCTASGFNIKDYYMHWMKQRTEQGLDWIGRIDPEDGETRYAPEFQGKATITADTSSNTAYLQLSTLTSEDTAVYYCARYYSSYLPFVYWGQGTLVTASA VL: DVVMTQTPLSLSVSLGDQASISCRSSQSLIYSNRHTYLHWYLQKPGQSPKLLIFQLSNRFSGVPDRFSGSGSGTDFTLKINRVEAEDLGVYFCSQSTHIPFTFGSGTKLEIKR as well.
y

Please do the same for Mutation 1-24 (antibody, V domains shown, built as for Mutation 1) VH: EVQLQQSGAELVKPGASVKLSCTASGFNLKDYFMHWMKQRTEQGLDWIGRIDPEDAETRYAPEFQGKATITADTSSNTAYLQLSTLTSEDTAVYYCARYYSSYVPFVYWGQGTLVTASA VL: DVVMTQTPLSLSVSLGDQASISCRSSQSLLYSNRHTYLHWYLQKPGQSPKLLIFQVSNRFSGVPDRFSGSGSGTDFTLKINRVEAEDLGVYFCSQSTHIPFTFGSGTKLEIKR as well.
n

Please do the same for Mutation 1-34 (antibody, V domains shown, built as for Mutation 1) VH: EVQLQQSGAELVKPGASVKLSCTASGFNIKDYFMHWMKQRTEQGLDWIGRIDPEDGETKYAPEFQGKATITADTSSNTAYLQLSTLTSEDTAVYYCARYYSSYIPFVYWGQGTLVTASA VL: DVVMTQTPLSLSVSLGDQASISCRSSQSLLYSNRHTYLHWYLQKPGQSPKLLIFQISNRFSGVPDRFSGSGSGTDFTLKINRVEAEDLGVYFCSQSTHIPYTFGSGTKLEIKR as well.
y

Please do the same for Mutation 1-14 (antibody, V domains shown, built as for Mutation 1) VH: EVQLQQSGAELVKPGASVKLSCTASGFNIKDYFMHWMKQRTEQGLDWIGRIDPEDAETKYAPEFQGKATITADTSSNTAYLQLSTLTSEDTAVYYCARYYSSYIPFVYWGQGTLVTASA VL: DVVMTQTPLSLSVSLGDQASISCRSSQSLLYSNRHTYLHWYLQKPGQSPKLLIFQISNRFSGVPDRFSGSGSGTDFTLKINRVEAEDLGVYFCSQSTHIPFTFGSGTKLEIKR as well.
n
